System: Glioblastomzelllinie A172
Test: Chemosensitivity (dose-response curves, EC50) of A172 cell lines with modified biomarker expression
Assay type: cell-based
Conditions: Homo sapiens, A 172, A172 overexpressing PRDX1; treatment with Carmustin
measured.quantity: pEC50
Formally, pEC50 is defined as -log10 of the concentration c, with c in mol/L.

Request: State its pEC50 on Glioblastomzelllinie A172: O=NN(CCCl)C(=O)NCCCl [Carmustin]
Response: 4.45

* * *

Tested on: Glioblastomzelllinie A172
Test: Chemosensitivity (dose-response curves, EC50) of A172 cell lines with modified biomarker expression
Format: cell-based
Details: Homo sapiens, A 172, A172 overexpressing CLIC1; treatment with Carmustin
measured.quantity: pEC50
Answer as the number alone; pEC50 is minus log10 of concentration in mol/L.

Request: What does the data say about its pEC50? Entry: `O=NN(CCCl)C(=O)NCCCl`
Response: 3.98

* * *

System: Glioblastomzelllinie T98G
Experiment: Chemosensitivity (dose-response curves, EC50) of T98G cell lines with modified biomarker expression
Type: cell-based
Details: Homo sapiens, T98G knock-down of VIL2, treatment with Carmustin
From the text: Alle erfindungsgemäßen Biomarker (SEQ ID No. 1 - 24), die in den differentiellen Untersuchungen identifiziert wurden, sind potentiell in der Lage an der Vermittlung der Chemosensitivität dieser Gliome beteiligt zu sein. Durch den Einsatz ausgewählter Zytostatika mit unterschiedlichen Wirkmechanismen kann überprüft werden, ob die erfindungsgemäßen Biomarker (SEQ ID No. 1 - 24) direkt mit dem Reaktionsmechanismus der in der Therapie üblichen Zytostatika wechselwirken. […]
measured.quantity: EC50 (µM)
Just the number please, in µM, no unit attached.

Request: Entry under review: O=NN(CCCl)C(=O)NCCCl [Carmustin] . Reported EC50?
Response: 159

* * *

Tested on: Glioblastomzelllinie T98G
Test: Chemosensitivity (dose-response curves, EC50) of T98G cell lines with modified biomarker expression
Type: cell-based
Details: Homo sapiens, T98G knock-down series, control cell line (Kontrolle), treatment with Temozolomid
Excerpt: Alle erfindungsgemäßen Biomarker (SEQ ID No. 1 - 24), die in den differentiellen Untersuchungen identifiziert wurden, sind potentiell in der Lage an der Vermittlung der Chemosensitivität dieser Gliome beteiligt zu sein. Durch den Einsatz ausgewählter Zytostatika mit unterschiedlichen Wirkmechanismen kann überprüft werden, ob die erfindungsgemäßen Biomarker (SEQ ID No. 1 - 24) direkt mit dem Reaktionsmechanismus der in der Therapie üblichen Zytostatika wechselwirken. […]
measured.quantity: EC50 (µM)
State just the number; it will be interpreted in µM.

Request: I have this compound here, `Cn1nnc2c(C(N)=O)ncn2c1=O` , and I need its recorded EC50.
Response: 327

* * *

Test system: Glioblastomzelllinie T98G
Experiment: Chemosensitivity (dose-response curves, EC50) of T98G cell lines with modified biomarker expression
Assay type: cell-based
Conditions: Homo sapiens, T98G knock-down of PRDX1, treatment with Temozolomid
measured.quantity: pEC50
Note on pEC50: it is the negative log10 of concentration, concentration in mol/L.

Request: What does the data say about its pEC50? Entry: `Cn1nnc2c(C(N)=O)ncn2c1=O`
Response: 3.42

* * *

Tested on: Glioblastomzelllinie A172
Test: Chemosensitivity (dose-response curves, EC50) of A172 cell lines with modified biomarker expression
Assay type: cell-based
Settings: Homo sapiens, A 172, A172 knock-down of ANXA1; treatment with Temozolomid
Description: Alle erfindungsgemäßen Biomarker (SEQ ID No. 1 - 24), die in den differentiellen Untersuchungen identifiziert wurden, sind potentiell in der Lage an der Vermittlung der Chemosensitivität dieser Gliome beteiligt zu sein. Durch den Einsatz ausgewählter Zytostatika mit unterschiedlichen Wirkmechanismen kann überprüft werden, ob die erfindungsgemäßen Biomarker (SEQ ID No. 1 - 24) direkt mit dem Reaktionsmechanismus der in der Therapie üblichen Zytostatika wechselwirken. […]
measured.quantity: EC50
Write the numeric value and follow it with the unit.

Request: # returns recorded EC50 (system: Glioblastomzelllinie A172) for Cn1nnc2c(C(N)=O)ncn2c1=O [Temozolomid]
Response: 113 µM

* * *

System: Glioblastomzelllinie A172
Assay: Chemosensitivity (dose-response curves, EC50) of A172 cell lines with modified biomarker expression
Format: cell-based
Conditions: Homo sapiens, A 172, A172 knock-down of CLIC1; treatment with Carmustin
measured.quantity: EC50 (µM)
Lab book: enter the figure in µM, no units written.

Request: Field: EC50 (Glioblastomzelllinie A172). Entry: O=NN(CCCl)C(=O)NCCCl [Carmustin]
Response: 171

* * *

System: Glioblastomzelllinie A172
Experiment: Chemosensitivity (dose-response curves, EC50) of A172 cell lines with modified biomarker expression
Format: cell-based
Conditions: Homo sapiens, A 172, A172 overexpressing ANXA1; treatment with Carmustin
measured.quantity: pEC50
Answer as the number alone; pEC50 is minus log10 of concentration in mol/L.

Request: // map O=NN(CCCl)C(=O)NCCCl [Carmustin] to recorded pEC50 (system: Glioblastomzelllinie A172)
Response: 4.05
